Target: hA2B AR (Homo sapiens)
Construct: expressed in transfected cells; host or cells: CHO cells
Sequence (P29275 1-332): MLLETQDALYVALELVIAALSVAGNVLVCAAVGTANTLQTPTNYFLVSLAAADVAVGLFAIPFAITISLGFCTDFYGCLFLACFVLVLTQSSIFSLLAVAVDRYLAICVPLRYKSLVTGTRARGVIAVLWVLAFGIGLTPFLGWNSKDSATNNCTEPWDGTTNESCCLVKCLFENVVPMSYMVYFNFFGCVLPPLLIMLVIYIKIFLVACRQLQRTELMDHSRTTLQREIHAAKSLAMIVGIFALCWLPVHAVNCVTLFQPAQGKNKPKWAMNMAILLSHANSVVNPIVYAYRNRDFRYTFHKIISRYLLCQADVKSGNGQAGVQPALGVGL
Assay: cAMP assay, stimulation of cAMP production in hA2B CHO cells (agonism)
Format: cell-based
Conditions: CHO; compound at 1µM, in comparison with NECA (1µM = 100%); read-out: Efficacy hA2B (cAMP assays) (converted)
measured attribute: Emax at 1 µM (%)

Here are 2 compounds together with their reported answers.
# molecule, Emax at 1 µM, %
data = [
    ("N#Cc1c(N)nc(SCc2ncc[nH]2)c(C#N)c1-c1ccc(OCC2CCC2)cc1", 12),
    ("N#Cc1c(N)nc(SCc2ncc[nH]2)c(C#N)c1-c1ccc(C(F)(F)F)cc1", 4),
]

A. Cc1c(C#N)c(N)nc(SCc2ncc[nH]2)c1C#N
B. CSc1ccc(-c2c(C#N)c(N)nc(SCc3ncc[nH]3)c2C#N)cc1
Data request: When A and B are compared, which has the higher number for Emax at 1 µM? Lab note: record the label of whichever item you select.
Data returned: B

* * *

Target: hA3 AR (Homo sapiens, UniProt P0DMS8)
Construct: expressed in transfected cells; host or cells: CHO cells
Sequence (P0DMS8 1-318): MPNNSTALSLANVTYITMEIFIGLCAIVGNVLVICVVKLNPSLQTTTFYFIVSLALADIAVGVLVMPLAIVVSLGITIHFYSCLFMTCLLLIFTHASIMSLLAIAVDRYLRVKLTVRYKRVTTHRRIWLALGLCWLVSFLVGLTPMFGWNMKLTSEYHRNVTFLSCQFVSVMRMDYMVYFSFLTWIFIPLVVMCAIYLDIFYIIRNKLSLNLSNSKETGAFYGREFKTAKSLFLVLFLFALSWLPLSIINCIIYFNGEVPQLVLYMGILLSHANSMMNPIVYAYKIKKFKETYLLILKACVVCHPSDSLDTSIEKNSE
Test: [125I]AB-MECA competition binding to hA3 CHO cell membranes
Conditions: percentage of inhibition at 1µM
measured attribute: inhibition at 1 µM (%)

# molecule, assayed target, quantity unit, value
measured = [
    ("N#Cc1c(N)nc(SCc2ncc[nH]2)c(C#N)c1Cc1ccccc1", "hA3 AR (Homo sapiens, UniProt P0DMS8)", "%", 1),
]

1. C=C(C)COc1ccc(-c2c(C#N)c(N)nc(SCc3ncc[nH]3)c2C#N)cc1
2. COc1ccc(CCNc2nc(N)c(C#N)c(-c3ccccc3)c2C#N)cc1
Data request: Form field 'greater inhibition at 1 µM' accepts 1 or 2 ; which applies? Selection: enter the item's label.
Data returned: 1

* * *

Target protein (sequence): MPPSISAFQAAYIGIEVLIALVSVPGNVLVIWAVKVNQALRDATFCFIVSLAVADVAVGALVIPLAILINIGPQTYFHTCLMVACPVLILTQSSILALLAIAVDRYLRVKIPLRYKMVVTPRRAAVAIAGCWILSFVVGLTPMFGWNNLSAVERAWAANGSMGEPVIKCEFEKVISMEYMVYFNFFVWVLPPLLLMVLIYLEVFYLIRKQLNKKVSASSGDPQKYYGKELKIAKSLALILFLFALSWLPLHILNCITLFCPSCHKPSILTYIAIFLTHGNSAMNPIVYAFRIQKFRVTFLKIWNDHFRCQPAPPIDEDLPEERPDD
measured attribute: Ki (nM)

Below, each entry is followed by its recorded Ki result.
# compound, quantity unit, value
data = [
    ("N#Cc1c(N)nc(NCCO)c(C#N)c1-c1ccccc1 [Compound 15]", "nM", 943),
    ("C=CCOc1ccc(-c2c(C#N)c(N)nc(SCc3ncc[nH]3)c2C#N)cc1 [Compound 3]", "nM", 16),
]

I. COC(=O)CSc1nc(N)c(C#N)c(-c2ccc(OC)cc2)c1C#N [Compound 20]
II. Cc1ccc(-c2c(C#N)c(N)nc(SCc3ncc[nH]3)c2C#N)cc1 [Compound 10]
III. C=C(C)COc1ccc(-c2c(C#N)c(N)nc(SCc3ncc[nH]3)c2C#N)cc1 [Compound 4]
IV. N#Cc1c(N)nc(SCc2ncc[nH]2)c(C#N)c1-c1ccc(C(F)(F)F)cc1 [Compound 9]
Data request: Please give the order of these compounds when sorted by Ki, largest value leading. A ranking is expressed here by listing the labels in the requested order.
Data returned: I, IV, III, II

* * *

// reported melting point per item

Known results for compounds:
# compound, melting point
data = [
    ("N#Cc1c(N)nc(-n2ccnc2)c(C#N)c1-c1ccccc1 [Compound 17]", "253 to 255 °C"),
    ("N#Cc1c(N)nc(SCc2ncc[nH]2)c(C#N)c1-c1ccc(F)cc1 [Compound 8]", "223 to 225 °C (dec.)"),
    ("CSc1ccc(-c2c(C#N)c(N)nc(SCc3ncc[nH]3)c2C#N)cc1 [Compound 11]", "257 to 259 °C (dec.)"),
    ("N#Cc1cnc(N)c(C#N)c1-c1ccccc1 [Compound 18]", "244 to 246 °C"),
]

Entry N#Cc1c(N)nc(NCCO)c(C#N)c1-c1ccccc1 [Compound 15] , melting point reported as 230 to 231 °C

* * *

Molecular target: hA2A AR (Homo sapiens, UniProt P29274)
Construct: expressed in transfected cells; host or cells: CHO cells
Sequence (P29274 whole entry): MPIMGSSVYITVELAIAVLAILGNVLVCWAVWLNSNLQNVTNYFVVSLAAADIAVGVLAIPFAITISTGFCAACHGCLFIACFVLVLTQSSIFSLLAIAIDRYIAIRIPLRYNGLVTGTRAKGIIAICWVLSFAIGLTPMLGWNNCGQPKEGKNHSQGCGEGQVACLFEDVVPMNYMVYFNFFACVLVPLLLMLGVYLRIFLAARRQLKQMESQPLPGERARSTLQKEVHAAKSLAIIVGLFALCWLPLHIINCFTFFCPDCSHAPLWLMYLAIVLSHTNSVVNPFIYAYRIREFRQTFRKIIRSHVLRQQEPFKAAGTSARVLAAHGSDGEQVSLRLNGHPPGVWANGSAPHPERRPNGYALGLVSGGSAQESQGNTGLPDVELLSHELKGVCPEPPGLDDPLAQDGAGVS
Assay: [3H]ZM241385 competition binding to hA2A CHO cell membranes
Settings: percentage of inhibition at 1µM; [3H]ZM241385
measured attribute: I% hA2A (%)

# molecule, value
rows = [
    ("COc1ccc(-c2c(C#N)c(N)nc(NCCO)c2C#N)cc1 [Compound 19]", 2),
    ("N#Cc1c(N)nc(-n2ccnc2)c(C#N)c1-c1ccccc1 [Compound 17]", 1),
    ("N#Cc1c(N)nc(SCc2ncc[nH]2)c(C#N)c1-c1ccc(OCC2CCC2)cc1 [Compound 1]", 4),
]

a. N#Cc1c(N)nc(NCCO)c(C#N)c1-c1ccccc1 [Compound 15]
b. N#Cc1cnc(N)c(C#N)c1-c1ccccc1 [Compound 18]
Data request: Of the two listed items, a and b , which carries the larger I% hA2A figure? Write down the label of the entry you select.
Data returned: b
(b: 16%, a: 1%)

1. CC(C)COc1ccc(-c2c(C#N)c(N)nc(SCc3ncc[nH]3)c2C#N)cc1 [Compound 2]
2. N#Cc1c(N)nc(SCc2ncc[nH]2)c(C#N)c1Cc1ccccc1 [Compound 12]
Data request: Would you kindly point out which of 1 and 2 has the smaller I% hA2A figure? Respond with the label that goes with your answer.
Data returned: 1

* * *

Biological target: hA1 AR (Homo sapiens)
Construct: expressed in transfected cells; host or cells: CHO cells
Sequence (P30542 1-326): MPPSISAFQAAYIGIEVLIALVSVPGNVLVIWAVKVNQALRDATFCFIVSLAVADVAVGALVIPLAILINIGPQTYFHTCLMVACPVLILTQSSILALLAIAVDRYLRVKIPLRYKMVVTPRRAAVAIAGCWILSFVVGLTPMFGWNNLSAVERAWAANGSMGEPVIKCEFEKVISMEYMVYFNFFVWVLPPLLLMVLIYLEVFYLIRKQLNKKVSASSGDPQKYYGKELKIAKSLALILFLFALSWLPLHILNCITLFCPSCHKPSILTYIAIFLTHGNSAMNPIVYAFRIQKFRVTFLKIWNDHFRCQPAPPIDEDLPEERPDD
Experiment: Modulation of Forskolin-stimulated cAMP levels in hA1 CHO cells
Type: cell-based
Details: Forskolin 5 µM; normalized to DPCPX (set at 100%)
measured attribute: Efficacy (modulation of Forskolin-stimulated cAMP, hA1 CHO cells) (%)

// known answers, use as guide
# molecule, value
rows = [
    ("C=CCOc1ccc(-c2c(C#N)c(N)nc(SCc3ncc[nH]3)c2C#N)cc1 [Compound 3]", 39),
    ("CSc1ccc(-c2c(C#N)c(N)nc(SCc3ncc[nH]3)c2C#N)cc1 [Compound 11]", 52),
]

P. N#Cc1c(N)nc(SCc2ncc[nH]2)c(C#N)c1-c1ccc(F)cc1 [Compound 8]
Q. CCCn1c(=O)c2[nH]c(C3CCCC3)nc2n(CCC)c1=O [DPCPX, 8-Cyclopentyl-1,3-dipropylxanthine, reference compound]
Data request: Select one. Lower Efficacy (modulation of Forskolin-stimulated cAMP, hA1 CHO cells): P or Q Answer format: the label of the selected item.
Data returned: P

Hello, the source for this data is paper PMC6958422, in case you need it.
